Measured selectivity ratio, listed per entry for reference.
method-summary: Selectivity index, ratio of IC50 for human L02 cells to IC50 for human HeLa cells by MTT assay
Assay type: toxicity
experimental-context: L02 cells versus HeLa cells, read-out: Ratio IC50
API note: the answer field is a bare number with no unit suffix.

- compound: "CC1=C(O)C(=O)C=C2C1=CC=C1[C@@]2(C)CC[C@@]2(C)[C@@H]3C[C@](C)(C(=O)O)CC[C@]3(C)CC[C@]12C [CELASTROL]"
  selectivity ratio: 0.87

[ask] Need selectivity ratio of `CN(C)CCCNC(=O)c1cc2cc(Nc3nccc(-c4cccnc4)n3)ccc2[nH]1` , thanks.
[reply] 3
